Cited source for all entries: ChEMBL document CHEMBL1165852

- Tested on: HMEC-1
- test.protocol: Antiinflammatory activity in human HMEC1 cells assessed as inhibition of TNF-alpha-induced ICAM-1 expression at 10 uM after 24 hrs by FACS analysis
- Format: functional
Calls of active or inactive are those of the source. The rule behind the calls is not given here.
Select the matching outcome among y (active), n (inactive)

# input.smiles, answer.label
records = [
    ("COc1cc(/C=C/C(=O)c2c(OC)cc(O)c(CCC(C)(C)O)c2O)ccc1O", "n"),
    ("COc1cc(/C=C/C(=O)c2c(OC)cc(O)c(CC=C(C)C)c2O)ccc1O", "y"),
    ("COc1cc(O)c(CCC(C)(C)O)c(O)c1C(=O)/C=C/c1ccc(O)c(O)c1", "y"),
    ("COc1ccc(/C=C/C(=O)c2c(OC)cc(O)c(CC=C(C)C)c2O)cc1", "y"),
]

For the next question, use this compound.
Called result for COc1cc(O)c(CC=C(C)C)c(O)c1C(=O)/C=C/c1ccc(O)cc1
y

====

- test.protocol: Antioxidant activity assessed as trolox equivalents of AAPH radical scavenging activity after 15 mins by ORAC-fluorescein assay
- Type: functional
measure.name: Activity
// keep it numeric: no unit symbol after the value

Given COc1cc(O)c(CCC(C)(C)O)c(O)c1C(=O)/C=C/c1ccc(O)c(O)c1 , state its recorded Activity.
3.9

Same read-out for COc1cc2c(c(O)c1C(=O)/C=C/c1ccc(O)c(O)c1)C=CC(C)(C)O2 ?
2.1

Same read-out for COc1cc(O)c(CC=C(C)C)c(O)c1C(=O)/C=C/c1ccc(O)cc1 ?
2.3

Same read-out for COc1cc(/C=C/C(=O)c2c(OC)cc(O)c(CCC(C)(C)O)c2O)ccc1O ?
3

Same read-out for COc1cc(/C=C/C(=O)c2c(O)cc(O)cc2OC)ccc1O ?
6

Same read-out for COc1cc(O)c(C(=O)/C=C/c2ccc(O)cc2)c(O)c1C(=O)/C=C/c1ccc(O)cc1 ?
7.7

Same read-out for COc1cc(O)c(CC=C(C)C)c(O)c1C(=O)/C=C/c1ccc(OC(C)=O)cc1 ?
0.6

Same read-out for COc1cc(/C=C/C(=O)c2c(OC)cc(O)c(CC=C(C)C)c2O)ccc1O ?
2.6

Same read-out for COc1ccc(/C=C/C(=O)c2c(OC)cc(O)c(CC=C(C)C)c2O)cc1 ?
1.6

Same read-out for COc1cc(/C=C/C(=O)c2c(OC)cc3c(c2O)C=CC(C)(C)O3)ccc1O ?
2

====

- Test system: HMEC-1
- test.protocol: Antiinflammatory activity in human HMEC1 cells assessed as inhibition of TNF-alpha-induced ICAM-1 expression at 10 uM after 24 hrs by FACS analysis
- Assay type: functional
Active and inactive are the calls of the source. The rule behind the calls is not given here.
Select the matching outcome among yes (1) (active), no (0) (inactive)

Please review the entries below; each comes with its answer.
# input.smiles, answer.label
records = [
    ("COc1cc(O)c(C(=O)/C=C/c2ccc(O)cc2)c(O)c1C(=O)/C=C/c1ccc(O)cc1", "no (0)"),
    ("COc1cc(/C=C/C(=O)c2c(OC)cc3c(c2O)C=CC(C)(C)O3)ccc1O", "yes (1)"),
    ("COc1cc(/C=C/C(=O)c2c(O)cc(O)cc2OC)ccc1O", "yes (1)"),
    ("COc1cc2c(c(O)c1C(=O)/C=C/c1ccc(O)c(O)c1)C=CC(C)(C)O2", "yes (1)"),
]

For the next question, use this compound.
Called result for COc1cc(O)c(CC=C(C)C)c(O)c1C(=O)/C=C/c1ccc(OC(C)=O)cc1
yes (1)

====

- test.protocol: Cytotoxicity against human HMEC1 cells assessed as cell viability after 24 hrs by MTT assay
- Assay type: cell-based
- condition.summary: hmec-1, 24 h
measure.name: Activity

Some molecules with recorded Activity:
# input.smiles, measure.name, observed
records = [
    ("COc1cc2c(c(O)c1C(=O)/C=C/c1ccc(O)c(O)c1)C=CC(C)(C)O2", "Activity", "Non-toxic"),
    ("COc1cc(/C=C/C(=O)c2c(OC)cc(O)c(CC=C(C)C)c2O)ccc1O", "Activity", "Non-toxic"),
    ("COc1cc(O)c(C(=O)/C=C/c2ccc(O)cc2)c(O)c1C(=O)/C=C/c1ccc(O)cc1", "Activity", "Non-toxic"),
    ("COc1cc(O)c(CCC(C)(C)O)c(O)c1C(=O)/C=C/c1ccc(O)c(O)c1", "Activity", "Non-toxic"),
    ("COc1cc(O)c(CC=C(C)C)c(O)c1C(=O)/C=C/c1ccc(OC(C)=O)cc1", "Activity", "Non-toxic"),
    ("COc1cc(O)cc(O)c1C(=O)/C=C/c1ccc(O)c(O)c1", "Activity", "Non-toxic"),
]

Given COc1ccc(/C=C/C(=O)c2c(OC)cc(O)c(CC=C(C)C)c2O)cc1 , state its recorded Activity.
Non-toxic
